target: JAK3 (Homo sapiens, UniProt P52333); construct: made in house; host or cells: SF9 insect cells (baculovirus); assay: JAK3 inhibition (Table 4); type: biochemical; conditions: read-out: JAK3 Ki
Sequence (P52333 783-1124): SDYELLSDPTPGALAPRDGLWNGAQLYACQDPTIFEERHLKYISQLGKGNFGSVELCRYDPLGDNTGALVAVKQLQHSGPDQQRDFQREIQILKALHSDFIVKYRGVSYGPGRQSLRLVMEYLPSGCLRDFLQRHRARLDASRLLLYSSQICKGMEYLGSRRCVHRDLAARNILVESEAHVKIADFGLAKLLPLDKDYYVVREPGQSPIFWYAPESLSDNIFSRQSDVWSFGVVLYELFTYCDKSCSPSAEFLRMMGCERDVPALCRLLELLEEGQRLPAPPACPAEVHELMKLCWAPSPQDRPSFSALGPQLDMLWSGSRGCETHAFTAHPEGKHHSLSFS
measurement name: Ki (nM)

1) CC1CNCCC1n1cnc2cnc3[nH]ccc3c21 (racemic) [Example 312] | 626
2) C[C@H](O)c1nc2cnc3[nH]ccc3c2n1[C@@H]1CCCN(C(=O)Cn2ccnc2)C1 [Example 781] | 4000
3) CC(CC#N)N1CCC(n2c(C3CCOC3)nc3cnc4[nH]ccc4c32)CC1 (racemic) [Example 391] | 35.8

(1) Cn1cc(CN2CCC(n3cnc4cnc5[nH]ccc5c43)CC2)cn1 [Example 68]
(2) C[C@@H](O)c1nc2cnc3[nH]ccc3c2n1[C@H]1CC[C@@H](N2CCC(C#N)CC2)CC1 (relative stereo) [Example 611]
Would you mind telling me which has the lower recorded Ki between 1 and 2 ? Write down the label attached to your selection.
2

(A) CC(O)c1nc2cnc3[nH]ccc3c2n1C1CC2CCC1O2 (single isomer, unassigned) [Example 907]
(B) O=C(Cc1nc2cnc3[nH]ccc3c2n1C1CCN(Cc2cccnc2)CC1)N1CCC(F)(F)CC1 [Example 286]
(C) N#CCC(=O)N1CC(n2cnc3cnc4[nH]ccc4c32)C1 [Example 38]
Endpoint returns the given molecules ordered by ascending Ki. Submit the labels in the order that the ranking request calls for.
B, A, C

---

target: JAK2 (Homo sapiens, UniProt O60674); construct: made in house; host or cells: SF9 insect cells (baculovirus); experiment: JAK2 inhibition (Table 4); assay type: biochemical; conditions: read-out: JAK2 Ki
Sequence (O60674 812-1132): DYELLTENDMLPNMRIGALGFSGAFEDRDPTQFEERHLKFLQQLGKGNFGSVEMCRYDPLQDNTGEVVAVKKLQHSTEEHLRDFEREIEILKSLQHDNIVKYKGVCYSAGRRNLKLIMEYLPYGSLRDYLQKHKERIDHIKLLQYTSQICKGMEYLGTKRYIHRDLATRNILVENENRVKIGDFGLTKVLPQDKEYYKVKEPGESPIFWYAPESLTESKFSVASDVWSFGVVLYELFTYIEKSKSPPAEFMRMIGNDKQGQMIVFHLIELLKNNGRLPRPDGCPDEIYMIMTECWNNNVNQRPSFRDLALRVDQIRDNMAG
pKi: −log10 of the molar value.
measurement name: pKi

1) OCCc1nc2cnc3[nH]ccc3c2n1[C@@H]1CCCN(Cc2ccccc2)C1 | 7.06
2) C[C@@H](O)c1nc2cnc3[nH]ccc3c2n1[C@H]1CC[C@@H](NCC(F)F)C1 | 7.07

(1) CCn1nccc1CN1CCC(n2c([C@@H](C)O)nc3cnc4[nH]ccc4c32)CC1
(2) Cn1nccc1C(=O)NCc1nc2cnc3[nH]ccc3c2n1C1CCN(CCC#N)CC1
Returns the identifier with the smallest measured pKi among 1 and 2 . Bench note: the answer is the label of the chosen record.
1
(1: 7.21, 2: 7.75)

---

molecular target: JAK3 (Homo sapiens, UniProt P52333); construct: made in house; host or cells: SF9 insect cells (baculovirus); assay: JAK3 inhibition (Table 4); format: biochemical; conditions: read-out: JAK3 Ki
pKi: −log10 of the molar value.
measurement name: pKi

(A) CC(O)c1nc2cnc3[nH]ccc3c2n1C1CCCN(C(=O)C2CC2C)C1 (centres unmarked) [Example 796]
(B) CC(O)c1nc2cnc3[nH]ccc3c2n1C1CCN(CC(=O)N2CCCCC2)CC1 (racemic) [Example 529]
Param pair: A , B . Output: the one whose pKi is numerically greater. Selection: enter the item's label.
B

(I) CO[C@H]1CC[C@H](n2c(CO)nc3cnc4[nH]ccc4c32)CC1 [Example 634]
(II) O[C@H]1CC[C@H](n2cnc3cnc4[nH]ccc4c32)C1 [Example 712]
Of I and II , whose reported pKi is the larger number? Kindly state the label of the option you pick.
II

---

target: JAK3 (Homo sapiens, UniProt P52333); construct: made in house; host or cells: SF9 insect cells (baculovirus); test: JAK3 inhibition (Table 4); format: biochemical; conditions: read-out: JAK3 Ki
measurement name: Ki (nM)

Sample answers from the record:
1. N#CCCN1CCC(n2c(CC(=O)N3CCC(F)(F)CC3)nc3cnc4[nH]ccc4c32)CC1 [Example 240] | 7.35
2. Cc1nc2cnc3[nH]ccc3c2n1[C@H]1CCC[C@](C)(O)C1 [Example 886] | 41.7
3. CN(C(=O)Cc1nc2cnc3[nH]ccc3c2n1C1CCNCC1)C1CCCC1 [Example 257] | 397
4. Cc1nc2cnc3[nH]ccc3c2n1[C@H]1CC[C@@H](NCCC#N)C1 [Example 723] | 4.88
5. N#CCCN1CCC(n2c(Cn3cccn3)nc3cnc4[nH]ccc4c32)CC1 [Example 205] | 32.6

(1) CC(C)OCCOCc1nc2cnc3[nH]ccc3c2n1C1CCN(CCC#N)CC1 [Example 843]
(2) N#CCC(=O)N1CCCC(n2cnc3cnc4[nH]ccc4c32)CC1 (racemic) [Example 485]
(3) N#CCCN1CCC(n2c(CCC3CC3)nc3cnc4[nH]ccc4c32)CC1 [Example 408]
(4) CC(C)c1nccn1CCc1nc2cnc3[nH]ccc3c2n1C1CCN(CCC#N)CC1 [Example 816]
(5) NC1CCCC(n2cnc3cnc4[nH]ccc4c32)C1 (single isomer, unassigned) [Example 366]
Order the 5 molecules from highest to lowest Ki. Put the labels in the order asked and list them.
5, 1, 4, 3, 2

(1) CS(=O)(=O)NCCc1nc2cnc3[nH]ccc3c2n1[C@H]1CCCOC1 [Example 854]
(2) CNC(=O)OC1CCC(n2c(C)nc3cnc4[nH]ccc4c32)CC1 (stereo not drawn) [Example 751]
Select the item whose Ki value is smaller, choosing between 1 and 2 . Write down the label of the entry you select.
2

(P) c1cc(N2CCC[C@@H](n3cnc4cnc5[nH]ccc5c43)C2)ccn1 [Example 13]
(Q) CC1(n2cnc3cnc4[nH]ccc4c32)CCN(S(C)(=O)=O)CC1 [Example 332]
(R) CN1CCN(S(=O)(=O)NCCc2nc3cnc4[nH]ccc4c3n2C2CCCCC2)CC1 [Example 511]
(S) Cn1nccc1C(=O)NCc1nc2cnc3[nH]ccc3c2n1C1CCN(CCC#N)CC1 [Example 209]
# sort list by recorded Ki, greatest to least Submit the labels in the order that the ranking request calls for.
P, R, Q, S
(P: 1840 nM, R: 174 nM, Q: 71.4 nM, S: 30.6 nM)
